Molecular target: HCV NS3 helicase NS3h_1b(con1) (Hepatitis C virus genotype 1b, UniProt Q9WMX2)
Construct: truncated C-terminally His-tagged NS3 proteins lacking the N-terminal protease, called NS3h; His-tag (C); made in house
Sequence (Q9WMX2 1192-1657): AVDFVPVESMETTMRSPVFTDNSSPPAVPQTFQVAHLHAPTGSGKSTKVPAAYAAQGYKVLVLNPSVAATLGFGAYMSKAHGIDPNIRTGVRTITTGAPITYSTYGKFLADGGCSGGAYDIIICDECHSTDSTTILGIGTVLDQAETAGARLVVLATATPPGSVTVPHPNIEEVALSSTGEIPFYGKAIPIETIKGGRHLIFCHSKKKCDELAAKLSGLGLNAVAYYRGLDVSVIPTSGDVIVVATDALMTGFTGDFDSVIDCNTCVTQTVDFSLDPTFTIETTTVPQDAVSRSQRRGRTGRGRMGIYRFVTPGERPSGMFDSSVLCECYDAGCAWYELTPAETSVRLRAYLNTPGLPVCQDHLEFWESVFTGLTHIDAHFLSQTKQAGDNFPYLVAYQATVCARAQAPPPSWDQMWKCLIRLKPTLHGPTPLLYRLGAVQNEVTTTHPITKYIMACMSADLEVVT
Assay: MBHA screen of NCI mechanistic set library at 20 μM (percent inhibition, compound interference)
Type: biochemical
Conditions: compounds at 20 μM, MBHA with DNA substrate; calculated from Equation 1
Residues, ends and D or L forms follow the SMILES beside them. *: point of attachment. Cbz = O=C(OCc1ccccc1)*; CH2Cl = ClC*
RECORDED METRIC: Inh. (%) (Inhibition)

// solved cases for Inh. (%) (Inhibition) follow
INSERT INTO results (molecule, system_tested, experimental_result) VALUES
  ('Br.CCN(CC)CC(C)(C)C(=O)/C=C/c1ccc(C)cc1', 'HCV NS3 helicase NS3h_1b(con1) (Hepatitis C virus genotype 1b, UniProt Q9WMX2)', 19.2),
  ('C=C1C(=O)OCC2C(C(=O)O)=CC3C(C)C(C)=CC123 (stereo not shown)', 'HCV NS3 helicase NS3h_1b(con1) (Hepatitis C virus genotype 1b, UniProt Q9WMX2)', '−11.3'),
  ('CN1CCN(CCSC2Cc3cc(Cl)ccc3Sc3ccccc32)CC1 (stereo not shown)', 'HCV NS3 helicase NS3h_1b(con1) (Hepatitis C virus genotype 1b, UniProt Q9WMX2)', 25.5);

A: CC(C)CC(NC(=O)OCc1ccccc1)C(=O)NC(Cc1ccccc1)C(=O)CCl (stereo not drawn) [Compound 173904] (Cbz-Leu-Phe-CH2Cl; configuration not given here)
B: CC(C)CCCCCCCCCCCCC(=O)NCC(=O)NC1C(C)OC(Nc2ncnc3nc[nH]c23)C(O)C1O (stereo not shown)
From the items above, decide which of A and B has the lower Inh. (%) (Inhibition) reading. Please identify the chosen entry by its label.
B
(B: 0.2%, A: 1.4%)
